# Test system: U2OS
# protocol.notes: Multiplex assay against U2OS
# Format: toxicity, cell-based
# run.conditions: human, 48 h, 10 µM, compound concentration 10 uM, replicate 2
assay.readout: Population Mitochondria Different-Phenotype (%)
Kindly provide the numeric value in % only, without the unit symbol.

Input COc1cc(-n2cnc3cc(-c4ccc(Cl)cc4)sc3c2=O)ccc1OCCN1CCCC1 . Output Population Mitochondria Different-Phenotype (%): 96

Input COc1cccc([C@@H](C)NCCCc2ccccc2Cl)c1.Cl [TECALCET HYDROCHLORIDE] . Output Population Mitochondria Different-Phenotype (%): 82

Input CN1CCCC(n2nc(Cc3ccc(Cl)cc3)c3ccccc3c2=O)CC1.Cl (configuration not stated) [AZELASTINE HYDROCHLORIDE] . Output Population Mitochondria Different-Phenotype (%): 98

Input C=CC(=O)Nc1cccc(C(=O)Nc2ccc(Nc3cc(-c4[nH]c(SC)nc4C)ccn3)cc2)c1 . Output Population Mitochondria Different-Phenotype (%): 17

Input CN1CCN(CCOc2cc(OC3CCOCC3)c3c(Nc4c(Cl)ccc5c4OCO5)ncnc3c2)CC1 [SARACATINIB] . Output Population Mitochondria Different-Phenotype (%): 100

Input COc1ncc(-c2ccc3nccc(-c4ccnnc4)c3c2)cc1NS(=O)(=O)c1ccc(F)cc1F [OMIPALISIB] . Output Population Mitochondria Different-Phenotype (%): 72

Input CC(C)(O)CNc1ncc(-c2ccnc(Nc3ccnc(Cl)c3)n2)c(CC2CC2)n1 . Output Population Mitochondria Different-Phenotype (%): 100

* * *

# Tested on: Fibroblast
# protocol.notes: Multiplex assay against human fibroblast
# Format: toxicity, cell-based
# run.conditions: 12 h, 1 µM, compound concentration 1 uM, replicate 1
assay.readout: Population Fragmented Nuclei (%)
Kindly provide the numeric value in % only, without the unit symbol.

Reference set, count: 5
# compound, Population Fragmented Nuclei (%)
measured = [
    ("Cc1nc(-c2cn3c(n2)-c2ccc(-c4cnn(C(C)(C)C(N)=O)c4)cc2OCC3)n(C(C)C)n1", 29),
    ("c1cn2cc(-c3ccc4cn[nH]c4c3)nc(Nc3ccc(N4CCOCC4)cc3)c2n1", 23),
    ("C[C@@H](NCCCc1cccc(C(F)(F)F)c1)c1cccc2ccccc12.Cl [CINACALCET HYDROCHLORIDE]", 22),
    ("CN1CCC[C@@H]1CCO[C@](C)(c1ccccc1)c1ccc(Cl)cc1.O=C(O)/C=C/C(=O)O [CLEMASTINE FUMARATE]", 35),
    ("CC(C)NCC(O)COc1ccc(CCOCC2CC2)cc1.Cl (stereo not given) [BETAXOLOL HYDROCHLORIDE]", 22),
]

Input OC1(c2ccc(Cl)cc2)CCN(Cc2c[nH]c3ccccc23)CC1 . Output Population Fragmented Nuclei (%): 26

* * *

# System: U2OS
# protocol.notes: Multiplex assay against U2OS
# Assay type: toxicity, cell-based
# run.conditions: human, 12 h, 1 µM, compound concentration 1 uM, replicate 2
Item-by-item account of Population Mitotic Cells (%)
Answer format: number, then unit.

# compound, test.system, Population Mitotic Cells (%)
data = [
    ("Cc1nc(Nc2n[nH]c3c2CN(C(=O)N[C@H](CN(C)C)c2ccccc2)C3(C)C)c2sccc2n1", "U2OS", "80%"),
    ("CN1CCN(CCOc2cc(OC3CCOCC3)c3c(Nc4c(Cl)ccc5c4OCO5)ncnc3c2)CC1", "U2OS", "30%"),
    ("C=CC(=O)Nc1cc2c(Nc3ccc(F)c(Cl)c3)ncnc2cc1OCCCN1CCOCC1.Cl.Cl [CANERTINIB DIHYDROCHLORIDE]", "U2OS", "5%"),
]

Response field Population Mitotic Cells (%) (U2OS) for item COc1cccc([C@@H](C)NCCCc2ccccc2Cl)c1.Cl [TECALCET HYDROCHLORIDE] : 83%

Response field Population Mitotic Cells (%) (U2OS) for item COc1cc(-n2cnc3cc(-c4ccc(Cl)cc4)sc3c2=O)ccc1OCCN1CCCC1 : 28%

* * *

# Test system: U2OS
# protocol.notes: Multiplex assay against U2OS
# Assay type: toxicity, cell-based
# run.conditions: human, 24 h, 10 µM, compound concentration 10 uM, replicate 2
Item-by-item account of Population Fragmented Nuclei (%)
Kindly provide the numeric value in % only, without the unit symbol.

Reference set, count: 2
# molecule, test.system, assay.readout, recorded.measurement
records = [
    ("O=C1NCN(c2ccccc2)C12CCN(CCCOc1ccc(F)cc1)CC2 [SPIRAMIDE]", "U2OS", "Population Fragmented Nuclei (%)", 3),
    ("Cc1nc(Nc2n[nH]c3c2CN(C(=O)N[C@H](CN(C)C)c2ccccc2)C3(C)C)c2sccc2n1 [PF-03758309]", "U2OS", "Population Fragmented Nuclei (%)", 19),
]

Then this molecule:
Input COc1ncc(-c2ccc3nccc(-c4ccnnc4)c3c2)cc1NS(=O)(=O)c1ccc(F)cc1F [OMIPALISIB] . Output Population Fragmented Nuclei (%): 27

* * *

# Tested on: HEK-293T
# protocol.notes: Multiplex assay against HEK293T
# Type: toxicity, cell-based
# run.conditions: human, 12 h, 10 µM, compound concentration 10 uM, replicate 1
assay.readout: Population Hoechst High Intensity Objects (%)

Reference set, count: 4
# compound, recorded.measurement
data = [
    ("O=C(NCCCC1CCCCC1)c1ccc(CNC(=O)c2cnn(-c3ccccc3)c2C(F)(F)F)cc1", "17% [middle of 4 runs]"),
    ("COc1cccc([C@@H](C)NCCCc2ccccc2Cl)c1.Cl [TECALCET HYDROCHLORIDE]", "12%"),
    ("Cc1nc(-c2ccc(-c3ccc(C(=O)N4CCc5cc6c(cc54)C4(CCN(C)CC4)CO6)cc3)c(C)c2)no1", "15%"),
    ("CNc1nc(NCc2ccc(NS(C)(=O)=O)cc2Cl)cc(-c2ccccn2)n1", "14%"),
]

Then this compound:
Response field Population Hoechst High Intensity Objects (%) (HEK-293T) for item C=CC(=O)Nc1cccc(C(=O)Nc2ccc(Nc3cc(-c4[nH]c(SC)nc4C)ccn3)cc2)c1 : 14%

* * *

Item-by-item account of Population Apoptotic (%)
# System: HEK-293T
# protocol.notes: Multiplex assay against HEK293T
# Type: toxicity, cell-based
# run.conditions: human, 24 h, 1 µM, compound concentration 1 uM, replicate 1
Answer format: number, then unit.

# compound, Population Apoptotic (%)
rows = [
    ("NC(=O)Nc1cc(-c2cccc(F)c2)sc1C(=O)N[C@H]1CCCNC1 [AZD-7762]", "19%"),
    ("CC[C@H](C)C(=O)O[C@H]1C[C@@H](C)C=C2C=C[C@H](C)[C@H](CC[C@@H]3C[C@@H](O)CC(=O)O3)[C@H]21 [LOVASTATIN]", "50%"),
]

Then this compound:
Input CCN(CC)CCCCNc1ncc2cc(-c3cc(OC)cc(OC)c3)c(NC(=O)NC(C)(C)C)nc2n1 [PD-173074] . Output Population Apoptotic (%): 32%

* * *

# System: Fibroblast
# protocol.notes: Multiplex assay against human fibroblast
# Type: toxicity, cell-based
# run.conditions: 12 h, 1 µM, compound concentration 1 uM, replicate 2
assay.readout: Population Mitotic Cells (%)
Kindly provide the numeric value in % only, without the unit symbol.

Reference set, count: 2
# compound, assay.readout, display.unit, recorded.measurement
measured = [
    ("CCN(CC)CCCCNc1ncc2cc(-c3cc(OC)cc(OC)c3)c(NC(=O)NC(C)(C)C)nc2n1", "Population Mitotic Cells (%)", "%", 32),
    ("CN1CCN(c2ccc(OC(F)(F)F)c(Nc3ncc4c(n3)-c3c(c(C(N)=O)nn3CCO)CC4)c2)CC1", "Population Mitotic Cells (%)", "%", 75),
]

Then this compound:
Input COc1cccc([C@@H](C)NCCCc2ccccc2Cl)c1.Cl [TECALCET HYDROCHLORIDE] . Output Population Mitotic Cells (%): 83

* * *

# Test system: HEK-293T
# protocol.notes: Multiplex assay against HEK293T
# Assay type: toxicity, cell-based
# run.conditions: human, 24 h, 1 µM, compound concentration 1 uM, replicate 2
Item-by-item account of Population Fragmented Nuclei (%)
Kindly provide the numeric value in % only, without the unit symbol.

Reference set, count: 2
# compound, Population Fragmented Nuclei (%)
data = [
    ("OC1(c2ccc(Cl)cc2)CCN(Cc2c[nH]c3ccccc23)CC1", 6),
    ("C=CC(=O)Nc1cc2c(Nc3ccc(F)c(Cl)c3)ncnc2cc1OCCCN1CCOCC1.Cl.Cl [CANERTINIB DIHYDROCHLORIDE]", 5),
]

Input COc1cc(-n2cnc3cc(-c4ccc(Cl)cc4)sc3c2=O)ccc1OCCN1CCCC1 . Output Population Fragmented Nuclei (%): 4

Input CN(C)C(=O)/C(C#N)=C/c1ccc(-c2nc3cnc4[nH]ccc4c3n2C2CCCCC2)o1 . Output Population Fragmented Nuclei (%): 8

Input CN1CCC[C@@H]1CCO[C@](C)(c1ccccc1)c1ccc(Cl)cc1.O=C(O)/C=C/C(=O)O [CLEMASTINE FUMARATE] . Output Population Fragmented Nuclei (%): 7

Data origin: ChEMBL document CHEMBL4689842
